tested on: LXRa homodimer (NR concentration 270 nM); experiment: PBM binding z-score (relative to random genomic background probes); higher = stronger binding; sequences stand for … in GC…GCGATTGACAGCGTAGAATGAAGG
ENDPOINT: PBM binding z-score
Give bare numbers.

# count of solved cases: 2
>  <CHAIN SEQUENCE>
GCAGACAGGTGAAACGCAGGTTACTCAGGGTGGC

>  <PBM binding z-score>
-0.533

$$$$
>  <CHAIN SEQUENCE>
TCTCGGAGGACACGAAAGGACAGAGCTCGACATC

>  <PBM binding z-score>
-0.281

$$$$

Can you give me PBM binding z-score for all of these, one by one?
1. CTCGAAAGGTCGGTTGAGGAGAGTATACGGATAA
2. TCTATTAGTTGATTAGGGCAACCGGAACAGCGGA
3. CCTTACGGGTCACTGACAAGTTATAGCATTTGGA

RESULT:
-0.296
0.183
0.0997

// each sequence listed below needs its PBM binding z-score
1. CCGACTGGGGCATAAGGGTACCATAAGCCAGCCC
2. GCTTGTAGATCAAGGTTAGGAAAGACTAAGCTAA
3. TCTTGTAGATCAAACAGGTTAAGAAAGCCTGAGT
4. ACAGACAGGTGAGTGAAGGTAGCTCAGCTGGACG

RESULT:
1: -0.527; 2: -0.468; 3: 0.121; 4: -0.74
